# interaction score per entry
ASSAY_SYSTEM: T1, 4H2604-AA
T1 chain: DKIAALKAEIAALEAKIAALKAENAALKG
TEST_DESCRIPTION: two-hybrid library CCmax;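 further: natural log of median RNA to DNA barcode read ratio; higher means stronger binding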
STATED_CONDITIONS: mean of both orientations
Response field accepts a number only; no unit should be typed.

In [3]: df
Out[3]:
                                     binder  observed
0  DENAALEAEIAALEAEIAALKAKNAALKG [4H1040-AA]     0.338
1  DENAALKAKIAALKAENAALEAKIAALKG [4H1878-AA]    -0.964
2  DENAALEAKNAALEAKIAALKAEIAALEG [4H1449-AA]    -0.197

Lab note: next binder to report on.
# input Which interaction score value is on record for DEIAALEAENAALKAKIAALKAENAALEG [4H235-AA] ?
# output -1.14
